Entries annotated with measured pKd
testedOn: T1, c-erbB-2 ECD with a Ser-Gly-His6 C-terminal fusion (UniProt P04626 23-652)
T1 construct: extracellular domain; Expressed from CHO cells, IMAC purified; coupled to a CM5 chip, coated on plates, or biotinylated with NHS-LC-biotin; also called c-erbB-2 extracellular domain; biotinylated c-erbB-2 ECD
procedureSummary: SPR BIAcore
Description: All assays were performed in triplicate. Briefly, […] of radioiodinated sFv was added to 5×10^6 SK-OV cells in the presence of increasing concentrations of unlabeled sFv from the same preparation. After a 30 minute incubation at 20° C., the samples were washed with PBS at 4° C. and centrifuged at 500 g. The amount of labeled sFv bound to the cells was determined by counting the pellets in a gamma counter and the K_a, and K_d were calculated using the EBDA program (V 2.0, G. A. McPherson, 1983). […]
Remember the convention: pKd equals -log10 of concentration in molar.

C6MH3-B1 (scFv, C6ML3-9 sFv, VH CDR3 library B mutant; also called CH3-B1) scFv: QVQLLQSGAELKKPGESLKISCKGSGYSFTSYWIAWVRQMPGKGLEYMGLIYPGDSDTKYSPSFQGQVTISVDKSVSTAYLQWSSLKPSDSAVYFCARHDVGYCTDRTCAKWPEYFQHWGQGTLVTVSSGGGGSGGGGSGGGGSQSVLTQPPSVSAAPGQKVTISCSGSSSNIGNNYVSWYQQLPGTAPKLLIYGHTNRPAGVPDRFSGSKSGTSASLAISGFRSEDEADYYCASWDYTLSGWVFGGGTKLTVLG | 9.80
C6MH3-D3 (scFv, C6ML3-9 sFv, VH CDR3 library D mutant) scFv: QVQLLQSGAELKKPGESLKISCKGSGYSFTSYWIAWVRQMPGKGLEYMGLIYPGDSDTKYSPSFQGQVTISVDKSVSTAYLQWSSLKPSDSAVYFCARHDVGYCSSSNCAKWPEWLDNWGQGTLVTVSSGGGGSGGGGSGGGGSQSVLTQPPSVSAAPGQKVTISCSGSSSNIGNNYVSWYQQLPGTAPKLLIYGHTNRPAGVPDRFSGSKSGTSASLAISGFRSEDEADYYCASWDYTLSGWVFGGGTKLTVLG | 9.57
C6MH3-B21 (scFv, C6ML3-9 sFv, VH CDR3 library B mutant) scFv: QVQLLQSGAELKKPGESLKISCKGSGYSFTSYWIAWVRQMPGKGLEYMGLIYPGDSDTKYSPSFQGQVTISVDKSVSTAYLQWSSLKPSDSAVYFCARHDVGYCTTPLCAKWPEYFQHWGQGTLVTVSSGGGGSGGGGSGGGGSQSVLTQPPSVSAAPGQKVTISCSGSSSNIGNNYVSWYQQLPGTAPKLLIYGHTNRPAGVPDRFSGSKSGTSASLAISGFRSEDEADYYCASWDYTLSGWVFGGGTKLTVLG | 9.14

Enquiry: Fill in: pKd of C6MH3-B48 (scFv, C6ML3-9 sFv, VH CDR3 library B mutant) scFv: QVQLLQSGAELKKPGESLKISCKGSGYSFTSYWIAWVRQMPGKGLEYMGLIYPGDSDTKYSPSFQGQVTISVDKSVSTAYLQWSSLKPSDSAVYFCARHDVGYCTDPSCAKWPEYFQHWGQGTLVTVSSGGGGSGGGGSGGGGSQSVLTQPPSVSAAPGQKVTISCSGSSSNIGNNYVSWYQQLPGTAPKLLIYGHTNRPAGVPDRFSGSKSGTSASLAISGFRSEDEADYYCASWDYTLSGWVFGGGTKLTVLG is ___
Return: 9.64

Enquiry: Looking for the measured pKd of C6MH3-B15 (scFv, C6ML3-9 sFv, VH CDR3 library B mutant) scFv: QVQLLQSGAELKKPGESLKISCKGSGYSFTSYWIAWVRQMPGKGLEYMGLIYPGDSDTKYSPSFQGQVTISVDKSVSTAYLQWSSLKPSDSAVYFCARHDVGYCESSRCAKWPEYFQHWGQGTLVTVSSGGGGSGGGGSGGGGSQSVLTQPPSVSAAPGQKVTISCSGSSSNIGNNYVSWYQQLPGTAPKLLIYGHTNRPAGVPDRFSGSKSGTSASLAISGFRSEDEADYYCASWDYTLSGWVFGGGTKLTVLG , can you help?
Return: 9.11

Enquiry: I would be grateful if you could share the reported pKd for C6MH3-D1 (scFv, C6ML3-9 sFv, VH CDR3 library D mutant) scFv: QVQLLQSGAELKKPGESLKISCKGSGYSFTSYWIAWVRQMPGKGLEYMGLIYPGDSDTKYSPSFQGQVTISVDKSVSTAYLQWSSLKPSDSAVYFCARHDVGYCSSSNCAKWPEWLHVWGQGTLVTVSSGGGGSGGGGSGGGGSQSVLTQPPSVSAAPGQKVTISCSGSSSNIGNNYVSWYQQLPGTAPKLLIYGHTNRPAGVPDRFSGSKSGTSASLAISGFRSEDEADYYCASWDYTLSGWVFGGGTKLTVLG .
Return: 9.51

Hey, just so you know, these numbers are from patent US6512097.
